- System: Hek293T
- EXPERIMENT: Primary qHTS to identify gynecologic anti-cancer compounds using libraries of approved drugs and bioactive compounds (AID 1345084); also: nearly all actives have a fitted effect of over 55% in size
- CONDITION NOTES: Gynecologic cancer cell panel viability, ATPlite luminescence, 48 h, control line for the selectivity index; series mostly up to 57.5 µM
Records with an inconclusive call do not appear. Active and inactive are the calls of the source. Calls follow the shape of the dose curve; as a rule, active = well fitted cell-killing curve with a large enough effect; inconclusive = small, poorly fitted or top-dose-only effect, or effect the other way; inactive = flat fitted curve, though single readings scatter.
Valid outcomes are listed here; reply with one: t for active, f for inactive

As a guide, the following entries are already answered.
c1ccc2c(Oc3nc(Nc4ccc(N5CCOCC5)cc4)c4ncn(C5CCCCC5)c4n3)cccc2c1	f
C[C@H](O)[C@@H]1C(=O)N2C(C(=O)O)=C(S[C@@H]3CN[C@H](CNS(N)(=O)=O)C3)[C@@H](C)[C@@H]12	f
N[C@H]1CN(c2c(F)cc3c(=O)c(C(=O)O)cn(C4C[C@@H]4F)c3c2Cl)CC12CC2 (stereo partly drawn)	f
CC(C)n1cnc2c(NCCc3ccc(O)cc3)nc(-c3csc4ccccc34)nc21	f
CCn1c(=O)c2c(nc(C=Cc3ccc(OC)c(OC)c3)n2C)n(CC)c1=O	f
CN1CCc2c(c3ccccc3n2Cc2ccc(C(=O)NO)cc2)C1	f
CC(C)C[C@H](NC(=O)[C@@H](NC(=O)c1cccc(-c2ccccc2)n1)[C@@H](C)O)B(O)O	t
CC(C)(N)c1ccc(-c2nc3ccccc3nc2-c2ccccc2)cc1	f

Inquiry: # fetch the recorded call for Cn1cnc2c(F)c(Nc3ccc(Br)cc3F)c(C(=O)NOCCO)cc21 here
Reply text: f

Inquiry: # fetch the recorded call for C[N+]1(C)[C@@H]2C[C@@H](OC(=O)C(O)(c3cccs3)c3cccs3)C[C@H]1[C@@H]1O[C@@H]12 here
Reply text: f

Inquiry: # fetch the recorded call for CCOC(=O)[C@@H](N)Cc1ccc(-c2cc(O[C@H](c3ccc(Cl)cc3-n3ccc(C)n3)C(F)(F)F)nc(N)n2)cc1 here
Reply text: f

Inquiry: # fetch the recorded call for OCCNC1CCCc2c1[nH]c1ccc(-c3ccccc3)cc21 (stereo not drawn) here
Reply text: f

Inquiry: # fetch the recorded call for FC(F)c1nc2ccccc2n1-c1nc(N2CCOCC2)nc(N2CCOCC2)n1 here
Reply text: t

----------
- EXPERIMENT: qHTS of pediatric cancer cell lines to identify multiple opportunities for drug repurposing: Primary screen for Rh30 cells (AID 1347107); also: nearly all actives have a fitted effect of over 75% in size
- CONDITION NOTES: Rh30 rhabdomyosarcoma viability, CellTiter-Glo luminescence, 48 h; series mostly up to 46 µM
Inconclusive results are not listed. Active and inactive are the calls of the source. Calls come from the whole dose curve; as a rule, active = well fitted cell-killing curve with a large enough effect; inconclusive = small, poorly fitted or top-dose-only effect; inactive = no such curve, though single readings can be large or run the other way.
Valid outcomes are listed here; reply with one: active, inactive

As a guide, the following entries are already answered.
c1ccc(CNc2nc(NCc3ccccc3)c3ccccc3n2)cc1	active
COc1ccnc2[nH]cc(C(=O)C(=O)N3CCN(C(=O)c4ccccc4)C[C@@H]3C)c12	inactive
CCOC(=O)N1CCN([N+]([O-])=NOc2ccc([N+](=O)[O-])cc2C#N)CC1	inactive
CC1(C)[C@H](O[C@H]2O[C@H](C(=O)O)[C@@H](O)[C@H](O)[C@H]2O[C@@H]2O[C@H](C(=O)O)[C@@H](O)[C@H](O)[C@H]2O)CC[C@@]2(C)[C@H]1CC[C@]1(C)[C@H]2C(=O)C=C2[C@H]3C[C@@](C)(C(=O)O)CC[C@]3(C)CC[C@]21C	inactive
COc1cc(C(C)C)c(Oc2cnc(NC(CO)CO)nc2N)cc1I	inactive
N[C@H]1CN(c2c(F)cc3c(=O)c(C(=O)O)cn(C4C[C@@H]4F)c3c2Cl)CC12CC2 (stereo partly specified)	inactive

Now for another entry.
Inquiry: # fetch the recorded call for CS[C@H]1SC[C@@H]2C(=O)N(C)[C@H](C(C)C)C(=O)OC[C@H](NC(=O)c3cnc4ccccc4n3)C(=O)N[C@H](C)C(=O)N(C)[C@@H]1C(=O)N(C)[C@H](C(C)C)C(=O)OC[C@H](NC(=O)c1cnc3ccccc3n1)C(=O)N[C@H](C)C(=O)N2C here
Reply text: inactive

Just for reference, PubChem BioAssay (NCATS) is where these values come from.
